For each of the compounds below, state its TGI.
Test system: SK-MEL-28 melanoma
Assay: NCI tumour cell line growth inhibition, 48 h
One number for each entry, in µM.

[[record]]
compound = "CCCCCCCCCCCCCCCCCCNC(=O)[C@H]1CSC(c2ccc(F)c(OC)c2)N1 (some centres not stated)"
data_value = 1.33

[[record]]
compound = "C[N+]1(CCCCN2c3ccccc3Sc3cc(N=[N+]=[N-])ccc32)CCN(C(=O)CCNC(=O)Cc2ccc(C(=O)c3ccccc3)cc2)CC1"
data_value = 46.4

[[record]]
compound = "O=c1c2ccccc2c(=O)c2c1sc1c(=O)c3ccc(O)cc3c(=O)c12"
data_value = 0.541

[[record]]
compound = "CCOC(=O)C(=Cc1c(-c2ccccc2)[nH]c2ccccc12)C(=O)OCC"
data_value = 21.6


Please report TGI for every entry that follows.
1. O=C1c2c(Br)sc(Br)c2[C@H]2OC(=S)N[C@@H]12
2. O=C(Nc1nc2ccc(F)cc2s1)c1cccnc1Nc1ccc(Cl)cc1Cl
3. O=C1Nc2ccc(Br)cc2C1=Nc1ccc(Cl)cc1

Found:
7.94
18.6
82.5

* * *

System: PC-3 prostate
Assay: NCI tumour cell line growth inhibition, 48 h
For each of the compounds below, state its TGI.

The following compounds have reported results that may help.
[[record]]
compound = "CSc1ncnc2c1cnn2Cc1cn(COCC(O)CO)nn1 (stereo unspecified)"
data_value = "> 100 µM"

[[record]]
compound = "O=C(O)C(Cc1c[nH]c2ccccc12)N1C(=O)c2ccccc2C1=O (stereo unspecified)"
data_value = "> 100 µM"


Please report TGI for every entry that follows.
1. Oc1cccc(-c2nc(N3CCOCC3)c3oc4ncccc4c3n2)c1
2. COc1ccc(-c2nn3ncccc3c2-c2ccnc(Nc3cccc(C(F)(F)F)c3)n2)cc1
3. Cc1ccc2c(C(C[N+](=O)[O-])c3ccco3)c(-c3ccccc3)[nH]c2c1 (stereo unspecified)
4. N#CC1=C(N)NC(=S)C(C#N)C12Nc1ccccc1S2 (stereo unspecified)

Found:
1. > 100 µM
2. > 25 µM
3. > 100 µM
4. > 100 µM

* * *

// each record: one item and its GI50 for U251 CNS

[[record]]
compound_string = "CCOc1cccc(/C=N/NC(=O)Cc2ccc(Nc3ccnc(C(F)(F)F)c3)cc2)c1O"
data_value = "1580 nM"

[[record]]
compound_string = "COc1ccc(CNC(=O)c2ccc(-c3cc(-c4nnc(C)o4)ccc3C)cc2)cc1"
data_value = "> 25000 nM"

[[record]]
compound_string = "NCCn1c2c(c3ccccc3c1=O)C(=O)c1ccccc1-2"
data_value = "544 nM"


Please report GI50 for every entry that follows.
1. NC1(C(=O)O)CSSC1
2. Cc1cc(S(N)(=O)=O)c(S/C(=N\NS(=O)(=O)c2ccccc2)c2ccc(Cl)c(Cl)c2)cc1Cl
3. COc1ccc2nc3cc(Cl)ccc3c(Nc3ccc(O)c(CN4CCCC4)c3)c2c1
4. O=C(Nc1cccc(Cl)c1)c1cc(Cl)ccc1O
5. Cc1cc([C@H](C)Nc2nccc(N3C(=O)OC[C@@H]3[C@H](C)F)n2)ncc1-c1ccnc(C(F)(F)F)c1

Found:
1. 3580 nM
2. 28800 nM
3. 2150 nM
4. 841 nM
5. 39500 nM

* * *

System: HCT-116 colon
Test: NCI tumour cell line growth inhibition, 48 h
measure_name: TGI

Please report TGI for every entry that follows.
1. CN(C)CCN1C(=O)N(CCN(C)C)c2c3cc(O)ccc3nc3c([N+](=O)[O-])ccc1c23
2. CCOc1cccc(/C=N/NC(=O)Cc2ccc(Nc3ccnc(C(F)(F)F)c3)cc2)c1O
3. CC(=O)[O-].O=[N+]([O-])c1ccc([O-])c(C=NCCN=Cc2cc([N+](=O)[O-])ccc2[O-])c1.[Mn+3]
4. Cc1ccc(-c2cc(C(Cl)Cl)on2)cc1
5. Cc1cc(C(=O)Nc2cc(Nc3ncccc3-c3ncnc4nc[nH]c34)ccc2F)cc(C(C)(C)C#N)c1
6. CCCCCc1cc(CCCC)sc1-c1ccco1
7. O=C(O)CCSc1ncnc2nc[nH]c12

Found:
1. 17.1 µM
2. 19.3 µM
3. > 100 µM
4. > 100 µM
5. > 41.9 µM
6. > 73 µM
7. > 100 µM

Please report TGI for every entry that follows.
1. C/C(=N\O)[C@H]1CC[C@@]2(C)[C@@H]3CC[C@H]4C(C)(C)/C(=N/O)CC[C@@]45CC35CC[C@]12C (some centres undefined)
2. CCC1(c2ccc(OC)c(OC)c2)CCN2C(=O)C(O)CC21 (centres undefined)

Found:
1. 5.77 µM
2. > 100 µM
